test: in vivo
conditionSummary: dog
measuredParameter: clearance

Problem: Data request, read-out clearance, for C[C@H]1Cn2ncc(C(=O)Nc3cccc(C#N)c3)c2C(=O)N1c1ccc(C(F)(F)c2ccccc2)cc1
Result: < 1.5 mL/min/kg

* * *

test: in vivo
conditionSummary: female, Syrian golden, hamster, iv, 1 mg/kg, Concentration, individual animal
measuredParameter: concentration at 1 h (ng/mL)
Numbers only here, please. The scale is ng/mL.

Problem: Data request, read-out concentration at 1 h, for C[C@H]1Cn2ncc(C(=O)Nc3cccc(C#N)c3)c2C(=O)N1c1ccc(C(F)(F)c2ccccc2)cc1
Result: 268

* * *

test: in vivo
conditionSummary: female, Syrian golden, hamster, po, 5 mg/kg, Concentration, individual animal
measuredParameter: concentration at 2 h (ng/mL)
Numbers only here, please. The scale is ng/mL.

Problem: Data request, read-out concentration at 2 h, for C[C@H]1Cn2ncc(C(=O)Nc3cccc(C#N)c3)c2C(=O)N1c1ccc(C(F)(F)c2ccccc2)cc1
Result: 230
